Can you tell me inhibition at 20 µM for the items I'm about to list?
Target: KRas G12C/Q61H double mutant (Homo sapiens (Human), UniProt P01116, G12C/Q61H)
Sequence (P01116-2 other isoform, or with tags, fused parts or gaps G12C/Q61H): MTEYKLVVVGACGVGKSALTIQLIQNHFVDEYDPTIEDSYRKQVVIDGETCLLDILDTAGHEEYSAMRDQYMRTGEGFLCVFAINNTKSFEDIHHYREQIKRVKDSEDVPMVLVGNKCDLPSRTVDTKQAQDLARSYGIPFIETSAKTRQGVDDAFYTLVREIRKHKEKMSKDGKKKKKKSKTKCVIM
Assay: Ras GTP binding domain inhibition assay (labeled GTP)
Settings: 20 μM compound; read-out: % Inhibition at 20 μM KRas G12C Q61H

Entry COc1cc(CCN(C)C(=O)c2csc3nc(-c4ccccn4)nc(N4CCOCC4)c23)ccn1 [drawing 2781] , tested on KRas G12C/Q61H double mutant (Homo sapiens (Human), UniProt P01116, G12C/Q61H), has a reported inhibition at 20 µM of 25 to 50%

The value of inhibition at 20 µM recorded for O=C(c1csc2c(O)nc(-c3ccccn3)nc12)N1CCC(c2ccncc2)C1 (stereo not drawn) [drawing 2839] when tested on KRas G12C/Q61H double mutant (Homo sapiens (Human), UniProt P01116, G12C/Q61H) reads 51 to 75%

KRas G12C/Q61H double mutant (Homo sapiens (Human), UniProt P01116, G12C/Q61H) data for CC(C(=O)Nc1nc(-c2ccccn2)nc2sccc12)c1ccc(C#N)cc1 (stereo not drawn) [drawing 2798] ; its inhibition at 20 µM: 76 to 100%

Reading of inhibition at 20 µM for COc1ccc(C2CN(C(=O)c3csc4c(O)nc(-c5ccccn5)nc34)CCN2)cc1 (stereo not drawn) [drawing 2774] with KRas G12C/Q61H double mutant (Homo sapiens (Human), UniProt P01116, G12C/Q61H): 76 to 100%

# value of inhibition at 20 µM, KRas G12C/Q61H double mutant (Homo sapiens (Human), UniProt P01116, G12C/Q61H), item Cc1sc2c(N)nc(-c3ccccn3)nc2c1-c1ccccc1 [drawing 2837] = 1 to 25%

inhibition at 20 µM of CC(C)(C(=O)Nc1nc(-c2ccccn2)nc2sccc12)c1ccc(C#N)cc1 [drawing 2752] , assay on KRas G12C/Q61H double mutant (Homo sapiens (Human), UniProt P01116, G12C/Q61H), is 1 to 25%

Entry O=C(c1csc2c(O)nc(-c3ccccn3)nc12)N1CCOC(c2nccs2)C1 (stereo not drawn) [drawing 2734] ; assay system KRas G12C/Q61H double mutant (Homo sapiens (Human), UniProt P01116, G12C/Q61H); inhibition at 20 µM recorded at 51 to 75%

Bench note, KRas G12C/Q61H double mutant (Homo sapiens (Human), UniProt P01116, G12C/Q61H): entry O=C(NCCc1cnc(O)nc1)c1csc2nc(-c3ccccn3)nc(N3CCS(=O)(=O)CC3)c12 [drawing 2854] , its inhibition at 20 µM = 1 to 25%

inhibition at 20 µM value, target or system KRas G12C/Q61H double mutant (Homo sapiens (Human), UniProt P01116, G12C/Q61H), for CN(C)Cc1ccc(F)c(-c2csc3c(O)nc(-c4ccccn4)nc23)c1 [drawing 2901] : 51 to 75%

# value of inhibition at 20 µM, KRas G12C/Q61H double mutant (Homo sapiens (Human), UniProt P01116, G12C/Q61H), item O=C(c1csc2c(O)nc(-c3ccccn3)nc12)N1CCNC(Cc2ccc(F)cc2)C1 (stereo not drawn) [drawing 2831] = 51 to 75%

Reported inhibition at 20 µM (KRas G12C/Q61H double mutant (Homo sapiens (Human), UniProt P01116, G12C/Q61H)) for entry N#Cc1cccc(N2CCN(C(=O)c3csc4c(O)nc(-c5ccccn5)nc34)CC2)c1 [drawing 2755] is 25 to 50%

The compound COc1ccc2c(c1)CCC2C(=O)Nc1ccnc(-c2ccccn2)n1 (stereo not drawn) [drawing 2795] on KRas G12C/Q61H double mutant (Homo sapiens (Human), UniProt P01116, G12C/Q61H): inhibition at 20 µM was 1 to 25%

The measured inhibition at 20 µM that COc1cc(-c2csc3c(O)nc(-c4ccccn4)nc23)cnc1C(F)(F)F [drawing 2884] showed for KRas G12C/Q61H double mutant (Homo sapiens (Human), UniProt P01116, G12C/Q61H) is 51 to 75%

Field inhibition at 20 µM (KRas G12C/Q61H double mutant (Homo sapiens (Human), UniProt P01116, G12C/Q61H)), entry COc1ccnc(-c2nc(O)c3ccsc3n2)c1 [drawing 2708] : 51 to 75%

Log: KRas G12C/Q61H double mutant (Homo sapiens (Human), UniProt P01116, G12C/Q61H), compound O=S1(=O)CCN(Cc2cccc(-c3csc4c(O)nc(-c5ccccn5)nc34)c2)CC1 [drawing 2864] , inhibition at 20 µM = 51 to 75%

GET /values?item= Nc1nc(-c2ccccn2)nc2scc(C(=O)O)c12 [drawing 2906] &system= KRas G12C/Q61H double mutant (Homo sapiens (Human), UniProt P01116, G12C/Q61H) returns inhibition at 20 µM: 51 to 75%

// returns inhibition at 20 µM for COc1ccc(F)cc1-c1csc2c(O)nc(-c3ccccn3)nc12 [drawing 2874] with KRas G12C/Q61H double mutant (Homo sapiens (Human), UniProt P01116, G12C/Q61H); value = 25 to 50%

Simply: COc1ccnc(-c2nc(O)c3c(C(F)(F)F)csc3n2)c1 [drawing 2833] , KRas G12C/Q61H double mutant (Homo sapiens (Human), UniProt P01116, G12C/Q61H), inhibition at 20 µM = 25 to 50%
